The origin of these recorded values is patent US9758524B2.

Listed next: entries and their corresponding EC50 Btk activity values.
Target: Btk enzyme (His-Btk) (Homo sapiens (Human), UniProt Q06187)
Sequence (Q06187 whole entry): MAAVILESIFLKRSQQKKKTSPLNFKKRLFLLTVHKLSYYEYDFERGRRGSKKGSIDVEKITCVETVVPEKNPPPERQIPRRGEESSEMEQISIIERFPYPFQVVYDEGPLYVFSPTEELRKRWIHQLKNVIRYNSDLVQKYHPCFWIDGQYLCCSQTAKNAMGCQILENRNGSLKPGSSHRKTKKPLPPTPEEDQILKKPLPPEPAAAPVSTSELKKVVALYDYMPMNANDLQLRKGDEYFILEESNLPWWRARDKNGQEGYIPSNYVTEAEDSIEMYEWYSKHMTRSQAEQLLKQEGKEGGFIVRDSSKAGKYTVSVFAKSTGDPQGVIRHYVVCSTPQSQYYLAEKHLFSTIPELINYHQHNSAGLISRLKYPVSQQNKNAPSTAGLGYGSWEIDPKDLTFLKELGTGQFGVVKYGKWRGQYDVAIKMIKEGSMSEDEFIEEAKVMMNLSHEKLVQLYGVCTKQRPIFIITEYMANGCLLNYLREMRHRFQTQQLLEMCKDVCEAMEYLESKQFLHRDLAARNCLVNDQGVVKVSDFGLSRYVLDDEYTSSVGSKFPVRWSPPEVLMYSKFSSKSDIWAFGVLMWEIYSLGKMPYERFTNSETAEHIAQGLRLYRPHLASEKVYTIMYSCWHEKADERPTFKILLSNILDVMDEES
Assay: Btk enzyme activity (IMAP fluorescence polarization assay)
Conditions: IMAP, 60 min pre-incubation, 5 μM ATP; bin bound in μM

Answered cases to consult:
- C=C(C(=O)N1CCC[C@H]1c1nc(-c2ccc(C(=O)Nc3ccccn3)cc2)c2c(N)nccn12)C(F)(F)F [Example 92]: <1 µM
- Nc1nccn2c([C@@H]3CCCCN3C(=O)c3ccnc(Cl)n3)nc(-c3ccc(C(=O)Nc4cccnn4)cc3)c12 [Example 74]: <1 µM
- COC/C=C/C(=O)N1CCC[C@H]1c1nc(-c2ccc(C(=O)Nc3cc(F)ccn3)cc2)c2c(N)nccn12 [Example 53]: <1 µM
- COC/C=C/C(=O)N1CCCC[C@H]1c1nc(-c2ccc(C(=O)Nc3ncccn3)cc2)c2c(N)nccn12 [Example 55]: <1 µM
- COC/C=C/C(=O)N1CCCC[C@H]1c1nc(-c2ccc(C(=O)Nc3nccc(C)n3)cc2)c2c(N)nccn12 [Example 88]: <1 µM

From here, focus on the item given below.
input: Any idea what EC50 Btk activity values was measured for CCCc1ccnc(NC(=O)c2ccc(-c3nc([C@@H]4CCCN4C(=O)/C=C/COC)n4ccnc(N)c34)c(C)c2)c1 [Example 87] ?
output: <1 µM

* * *

Biological target: UniProt:P12931
Sequence (P12931 whole entry, looked up): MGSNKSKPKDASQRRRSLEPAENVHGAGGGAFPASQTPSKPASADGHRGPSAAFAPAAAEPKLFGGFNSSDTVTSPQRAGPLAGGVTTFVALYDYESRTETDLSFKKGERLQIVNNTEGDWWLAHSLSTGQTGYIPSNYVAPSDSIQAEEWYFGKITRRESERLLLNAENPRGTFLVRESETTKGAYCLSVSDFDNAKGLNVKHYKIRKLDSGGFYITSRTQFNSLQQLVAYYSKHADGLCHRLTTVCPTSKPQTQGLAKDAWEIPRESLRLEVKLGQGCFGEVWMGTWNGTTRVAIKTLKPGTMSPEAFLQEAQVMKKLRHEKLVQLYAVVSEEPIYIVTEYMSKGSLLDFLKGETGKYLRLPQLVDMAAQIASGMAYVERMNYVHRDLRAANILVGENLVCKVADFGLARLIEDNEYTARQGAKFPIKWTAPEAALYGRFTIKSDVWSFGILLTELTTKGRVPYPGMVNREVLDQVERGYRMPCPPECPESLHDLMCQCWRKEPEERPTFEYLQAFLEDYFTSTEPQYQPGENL
Test: Src enzyme activity (IMAP fluorescence polarization assay)
Settings: read-out: EC50 Src activity values; IMAP, 60 min pre-incubation, 4 μM ATP
pEC50: −log10 of the molar value.
measuredProperty: pEC50

Answered cases to consult:
• C=CC(=O)N1CCCC[C@H]1c1nc(-c2ccc(C(=O)Nc3cc(CCC)ccn3)c(F)c2)c2c(N)nccn12 = ≤ 6.00
• COC/C=C/C(=O)NCc1nc(-c2ccc(C(=O)Nc3ccccn3)cc2)c2c(N)nccn12 = ≤ 6.00
• CC#CC(=O)N1CCCC[C@H]1c1nc(-c2ccc(C(=O)Nc3ccccn3)cc2C)c2c(N)nccn12 = ≤ 6.00
• COCC#CC(=O)N1CCC[C@H]1c1nc(-c2ccc(C(=O)Nc3ccccn3)cc2)c2c(N)nccn12 = ≤ 6.00
• CC(C)c1ccnc(NC(=O)c2ccc(-c3nc([C@@H]4CCCN4C(=O)/C=C/CN(C)C)n4ccnc(N)c34)cc2)c1 = ≤ 6.00
• Nc1nccn2c([C@@H]3CCCN3C(=O)C#CC3CC3)nc(-c3ccc(C(=O)Nc4ccccn4)cc3)c12 = ≤ 6.00
• CC#CC(=O)N1CCC[C@H]1c1nc(-c2ccc(C(=O)Nc3cc(F)ccn3)cc2)c2c(N)nccn12 = ≤ 6.00
• Nc1nccn2c([C@@H]3CCCCN3C(=O)c3ccnc(Cl)n3)nc(-c3ccc(C(=O)Nc4cc(C(F)(F)F)ccn4)cc3)c12 = ≤ 6.00
• CN(C)CC#CC(=O)N1CCC[C@H]1c1nc(-c2ccc(C(=O)Nc3ccccn3)cc2)c2c(N)nccn12 = ≤ 6.00
• C=CC(=O)N1CCC[C@H]1c1nc(-c2ccc(C(=O)Nc3cc(-c4ccccc4)ccn3)cc2)c2c(N)nccn12 = ≤ 6.00

input: Any idea what pEC50 was measured for CC#CC(=O)N1CCCC[C@H]1c1nc(-c2ccc(C(=O)Nc3cc(C(F)(F)F)ccn3)cc2)c2c(N)nccn12 ?
output: ≤ 6.00

input: Any idea what pEC50 was measured for COC/C=C/C(=O)N1CCCC[C@H]1c1nc(-c2ccc(C(=O)Nc3ccon3)cc2)c2c(N)nccn12 ?
output: ≤ 6.00

input: Any idea what pEC50 was measured for CCCC#CC(=O)N1CCC[C@H]1c1nc(-c2ccc(C(=O)Nc3ccccn3)cc2)c2c(N)nccn12 ?
output: ≤ 6.00

input: Any idea what pEC50 was measured for C=CC(=O)N[C@@H](C)c1nc(-c2ccc(C(=O)Nc3ccccn3)cc2)c2c(N)nccn12 ?
output: ≤ 6.00

input: Any idea what pEC50 was measured for CC#CC(=O)N(C)[C@@H](C)c1nc(-c2ccc(C(=O)Nc3cc(C(F)(F)F)ccn3)cc2)c2c(N)nccn12 ?
output: ≤ 6.00

input: Any idea what pEC50 was measured for CC#CC(=O)N[C@@H](C)c1nc(-c2ccc(C(=O)Nc3ccccn3)cc2)c2c(N)nccn12 ?
output: ≤ 6.00
